# Experimental system: T1, TP-51 peptide (aa 352-414 of SEQ ID NO:1) (human)
# T1 construct: Synthetic peptide (Pepscan)
# T1 peptide: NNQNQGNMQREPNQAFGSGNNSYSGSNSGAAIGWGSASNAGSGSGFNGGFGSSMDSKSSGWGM
# Protocol details: SPR 8K, mAb captured, TP-51 injected
Property name: kon (M⁻¹ s⁻¹)
Report the value in M⁻¹ s⁻¹ with no unit label.

Example results:
hACI-7069-633B12-Ab1_H20L14 (IgG4) (antibody, V domains shown) VH: EVQLVQSGAEVKKPGASVKVSCKTSGFTFTEYSMHWVRQAPGQRLEWIGGINPGNAGTSYNQKFKGRVTITVDTSASTAYMELSSLRSEDTAVYYCARESWGQGTTVTVSS VL: DVVMTQSPLSLPVTLGQPASISCKSSQSLLHSDAKTYLNWLQQRPGQSPRRLIYLVSKLDSGVPDRFSGSGSGTDFTLKISRVEAEDLGVYYCFQGTHFPHTFGQGTKLEIK; 130000
hACI-7069-633B12-Ab1_H19L17 (IgG4) (antibody, V domains shown) VH: QVQLVQSGAEVKKPGASVKVSCKTSGFTFTEYSMHWVRQAPGQRLEWIGGINPGNAGTSYNQKFKGRVTITVDTSASTAYMELSSLRSEDTAVYYCARESWGQGTTVTVSS VL: DVVMTQSPLSLPVTLGQPASISCKSSQSLLHSDAKTYLNWLLQRPGQSPRRLIYLVSKLDSGVPDRFSGSGSGTDFTLKISRVEAEDLGVYYCFQGTHFPHTFGQGTKLEIK; 70000

Here is another binder to look at.
Which kon value is on record for hACI-7069-633B12-Ab1_H20L19 (IgG4) (antibody, V domains shown) VH: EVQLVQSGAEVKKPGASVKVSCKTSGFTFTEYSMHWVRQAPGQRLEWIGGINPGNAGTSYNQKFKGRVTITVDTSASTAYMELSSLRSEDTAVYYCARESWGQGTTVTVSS VL: DVVMTQSPLSLPVTLGQPASISCKSSQSLLHSDAKTYLNWLQQRPGQSPKRLIYLVSKLDSRVPDRFSGSGSGTDFTLKISRVEAEDLGVYYCFQGTHFPHTFGQGTKLEIK ?
90000
